Test system: Streptococcus pyogenes
assay_procedure: Antibacterial activity against Streptococcus pyogenes MTCC 442 after 24 hrs by broth dilution method
Format: functional
condition_details: MTCC 442, 24 h
readout_label: MIC (µg/mL)

record_smiles=Cc1ccc(-[n+]2noc([O-])c2CN2CCN(CCOCCO)CC2)cc1 test_system="Streptococcus pyogenes" readout_label=MIC obs_value=500
record_smiles=[O-]c1on[n+](-c2ccc(Cc3ccc(-[n+]4noc([O-])c4CN4CCOCC4)cc3)cc2)c1CN1CCOCC1 test_system="Streptococcus pyogenes" readout_label=MIC obs_value=250
record_smiles=[O-]c1on[n+](-c2ccc(Cc3ccc(-[n+]4noc([O-])c4CN4CCNCC4)cc3)cc2)c1CN1CCNCC1 test_system="Streptococcus pyogenes" readout_label=MIC obs_value=500
record_smiles=CN1CCN(Cc2c([O-])on[n+]2-c2ccc(Cc3ccc(-[n+]4noc([O-])c4CN4CCN(C)CC4)cc3)cc2)CC1 test_system="Streptococcus pyogenes" readout_label=MIC obs_value=62.5
record_smiles=Cc1ccc(-[n+]2noc([O-])c2CN2CCN(C3=Nc4ccccc4Sc4ccccc43)CC2)cc1 test_system="Streptococcus pyogenes" readout_label=MIC obs_value=500
record_smiles=CCn1cc(C(=O)O)c(=O)c2cc(F)c(N3CCNCC3)cc21 test_system="Streptococcus pyogenes" readout_label=MIC obs_value=10
record_smiles=CC(=O)N1CCN(Cc2c([O-])on[n+]2-c2ccc(Cc3ccc(-[n+]4noc([O-])c4CN4CCN(C(C)=O)CC4)cc3)cc2)CC1 test_system="Streptococcus pyogenes" readout_label=MIC obs_value=100
record_smiles=Cc1ccc(-[n+]2noc([O-])c2CN2CCN(c3ccccc3)CC2)cc1 test_system="Streptococcus pyogenes" readout_label=MIC obs_value=250

---

Tested on: Streptococcus pyogenes
assay_procedure: Antibacterial activity against Streptococcus pyogenes MTCC 442 after 24 hrs by broth dilution method
Assay type: functional
condition_details: MTCC 442, 24 h
readout_label: MIC (µg/mL)

compound=Cc1ccc(-[n+]2noc([O-])c2CN2CCNCC2)cc1 test_system="Streptococcus pyogenes" obs_value=500
compound=[O-]c1on[n+](-c2ccc(Cc3ccc(-[n+]4noc([O-])c4CN4CCN(c5ccccc5)CC4)cc3)cc2)c1CN1CCN(c2ccccc2)CC1 test_system="Streptococcus pyogenes" obs_value=200
compound=[O-]c1on[n+](-c2ccc(Cc3ccc(-[n+]4noc([O-])c4CN4CCN(c5cccc(Cl)c5Cl)CC4)cc3)cc2)c1CN1CCN(c2cccc(Cl)c2Cl)CC1 test_system="Streptococcus pyogenes" obs_value=200
compound=CC(=O)N1CCN(Cc2c([O-])on[n+]2-c2ccc(C)cc2)CC1 test_system="Streptococcus pyogenes" obs_value=100
compound="O=C(O)c1cn(C2CC2)c2cc(N3CCNCC3)c(F)cc2c1=O [CIPROFLOXACIN]" test_system="Streptococcus pyogenes" obs_value=50
compound=Cc1ccc(-[n+]2noc([O-])c2CN2CCCCC2)cc1 test_system="Streptococcus pyogenes" obs_value=200
compound=[O-]c1on[n+](-c2ccc(Cc3ccc(-[n+]4noc([O-])c4CN4CCN(c5cccc(Cl)c5)CC4)cc3)cc2)c1CN1CCN(c2cccc(Cl)c2)CC1 test_system="Streptococcus pyogenes" obs_value=200
compound=Cc1ccc(-[n+]2noc([O-])c2CN2CCN(c3cccc(Cl)c3)CC2)cc1 test_system="Streptococcus pyogenes" obs_value=125
compound="CC1(C)S[C@@H]2[C@H](NC(=O)[C@H](N)c3ccccc3)C(=O)N2[C@H]1C(=O)O [AMPICILLIN]" test_system="Streptococcus pyogenes" obs_value=100

---

assay_procedure: Cytotoxicity against human MT4 cells by MTT assay
Type: cell-based
The entries below are paired with their reported CC50.
readout_label: CC50 (µg/mL)

molecule=Cc1ccc(-[n+]2noc([O-])c2CN2CCCCC2)cc1 readout_label=CC50 readout_qualifier== obs_value=18.7
molecule=[O-]c1on[n+](-c2ccc(Cc3ccc(-[n+]4noc([O-])c4CN4CCN(c5cccc(Cl)c5)CC4)cc3)cc2)c1CN1CCN(c2cccc(Cl)c2)CC1 readout_label=CC50 readout_qualifier== obs_value=13.2
molecule=Cc1ccc(-[n+]2noc([O-])c2CN2CCN(c3ccccc3)CC2)cc1 readout_label=CC50 readout_qualifier== obs_value=13.2
molecule=[O-]c1on[n+](-c2ccc(Cc3ccc(-[n+]4noc([O-])c4CN4CCN(c5cccc(Cl)c5Cl)CC4)cc3)cc2)c1CN1CCN(c2cccc(Cl)c2Cl)CC1 readout_label=CC50 readout_qualifier== obs_value=20.8
molecule=Cc1ccc(-[n+]2noc([O-])c2CN2CCN(c3cccc(Cl)c3)CC2)cc1 readout_label=CC50 readout_qualifier== obs_value=27.4
molecule=Cc1ccc(-[n+]2noc([O-])c2CN2CCN(C3=Nc4ccccc4Sc4ccccc43)CC2)cc1 readout_label=CC50 readout_qualifier== obs_value=13.7
molecule="Nc1ccn([C@H]2CC[C@@H](CO)O2)c(=O)n1 [ZALCITABINE]" readout_label=CC50 readout_qualifier=> obs_value=20
molecule=[O-]c1on[n+](-c2ccc(Cc3ccc(-[n+]4noc([O-])c4CN4CCN(C5=Nc6ccccc6Sc6ccccc65)CC4)cc3)cc2)c1CN1CCN(C2=Nc3ccccc3Sc3ccccc32)CC1 readout_label=CC50 readout_qualifier== obs_value=11.6

---

System: Human immunodeficiency virus 2
assay_procedure: Antiviral activity against HIV2 ROD infected in MT4 cells assessed as inhibition of virus-induced cytopathogenicity by MTT assay
Assay type: functional, organism-based
condition_details: Human immunodeficiency virus 2, ISOLATE ROD
readout_label: IC50

record_smiles=Cc1ccc(-[n+]2noc([O-])c2CN2CCN(c3ccccc3)CC2)cc1 readout_label=IC50 obs_value="> 13.2 µg/mL"
record_smiles=Cc1ccnc2c1NC(=O)c1cccnc1N2C1CC1 readout_label=IC50 obs_value="> 4 µg/mL"
record_smiles=Cc1ccc(-[n+]2noc([O-])c2CN2CCNCC2)cc1 readout_label=IC50 obs_value="> 32.6 µg/mL"
record_smiles=Cc1ccc(-[n+]2noc([O-])c2CN2CCOCC2)cc1 readout_label=IC50 obs_value="> 16.6 µg/mL"
record_smiles=Nc1ccn([C@H]2CC[C@@H](CO)O2)c(=O)n1 readout_label=IC50 obs_value="0.19 µg/mL"
record_smiles=Cc1ccc(-[n+]2noc([O-])c2CN2CCN(C)CC2)cc1 readout_label=IC50 obs_value="> 12.7 µg/mL"
record_smiles=Cc1ccc(-[n+]2noc([O-])c2CN2CCCCC2)cc1 readout_label=IC50 obs_value="> 18.7 µg/mL"
record_smiles=[O-]c1on[n+](-c2ccc(Cc3ccc(-[n+]4noc([O-])c4CN4CCN(c5cccc(Cl)c5Cl)CC4)cc3)cc2)c1CN1CCN(c2cccc(Cl)c2Cl)CC1 readout_label=IC50 obs_value="> 20.8 µg/mL"
record_smiles=[O-]c1on[n+](-c2ccc(Cc3ccc(-[n+]4noc([O-])c4CN4CCN(C5=Nc6ccccc6Sc6ccccc65)CC4)cc3)cc2)c1CN1CCN(C2=Nc3ccccc3Sc3ccccc32)CC1 readout_label=IC50 obs_value="> 11.6 µg/mL"

---

Tested on: Staphylococcus aureus
assay_procedure: Antibacterial activity against Staphylococcus aureus MTCC 96 at 250 ug/ml after 24 hrs by Kirby-Bauer method
Assay type: functional
condition_details: MTCC 96, 24 h, read-out: IZ
readout_label: zone of inhibition at 250 µg/mL (mm)

compound="CC1(C)S[C@@H]2[C@H](NC(=O)[C@H](N)c3ccccc3)C(=O)N2[C@H]1C(=O)O [AMPICILLIN]" test_system="Staphylococcus aureus" obs_value=18
compound=[O-]c1on[n+](-c2ccc(Cc3ccc(-[n+]4noc([O-])c4CN4CCN(c5cccc(Cl)c5)CC4)cc3)cc2)c1CN1CCN(c2cccc(Cl)c2)CC1 test_system="Staphylococcus aureus" obs_value=19
compound=Cc1ccc(-[n+]2noc([O-])c2CN2CCCCC2)cc1 test_system="Staphylococcus aureus" obs_value=16
compound="CN1CCN(Cc2c([O-])on[n+]2-c2ccc(Cc3ccc(-[n+]4noc([O-])c4CN4CCN(C)C(c5ccccc5)C4)cc3)cc2)CC1c1ccccc1 (centres undefined)" test_system="Staphylococcus aureus" obs_value=16

---

System: Candida albicans
assay_procedure: Antifungal activity against Candida albicans MTCC 227
Format: functional
readout_label: MIC

record_smiles=Cc1ccc(-[n+]2noc([O-])c2CN2CCCCC2)cc1 obs_value="250 µg/mL"
record_smiles=Cc1ccc(-[n+]2noc([O-])c2CN2CCOCC2)cc1 obs_value="500 µg/mL"
record_smiles=[O-]c1on[n+](-c2ccc(Cc3ccc(-[n+]4noc([O-])c4CN4CCN(c5cccc(Cl)c5)CC4)cc3)cc2)c1CN1CCN(c2cccc(Cl)c2)CC1 obs_value="1000 µg/mL"
record_smiles=[O-]c1on[n+](-c2ccc(Cc3ccc(-[n+]4noc([O-])c4CN4CCN(C5=Nc6ccccc6Sc6ccccc65)CC4)cc3)cc2)c1CN1CCN(C2=Nc3ccccc3Sc3ccccc32)CC1 obs_value="500 µg/mL"
record_smiles=[O-]c1on[n+](-c2ccc(Cc3ccc(-[n+]4noc([O-])c4CN4CCOCC4)cc3)cc2)c1CN1CCOCC1 obs_value="500 µg/mL"
record_smiles=[O-]c1on[n+](-c2ccc(Cc3ccc(-[n+]4noc([O-])c4CN4CCCCC4)cc3)cc2)c1CN1CCCCC1 obs_value="500 µg/mL"
record_smiles=Cc1ccc(-[n+]2noc([O-])c2CN2CCN(c3ccccc3)CC2)cc1 obs_value="500 µg/mL"
record_smiles=Cc1ccc(-[n+]2noc([O-])c2CN2CCN(C)CC2)cc1 obs_value="500 µg/mL"
